B1: LINE1-mini (parent)
chain: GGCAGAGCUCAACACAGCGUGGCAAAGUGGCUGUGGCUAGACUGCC

- Variants of: B1
- method_description: self-cleavage, relative activity (ratio to wild type); higher = more cleavage; in vitro, sequencing; the parent is a self-cleaving ribozyme
Could you label it Yes if measured self-cleavage is 0.1 or higher, and No otherwise?

Known results for variants:
| sequence_entry | label_class |
| --- | --- |
| GGCAGACCUCAAAACAGCGUGGCAAAGUGGCUGUGGCUAGACUGCC | Yes |
| GGCAGAGCUCAACACAGCGUGGCAAAGUGGCUGUGGCUCGACCGCC | No |
| GGCAGAGCUCAACAGAGCGUGGCAAAGUGGCUGUAGCUAGACUGCC | No |
| GGUAGAGCUCAACACAGCGUGGCAAAGUGGCUGUGGCUAGCCUGCC | No |
| GGCAGAGCACAACACAGCGUGGCAAAGUGGCUGCGGCUAGACUGCC | Yes |
| GGCAGAGCUCAACACAGCGUGGCAAGGUGGCUGUGGCUAGAAUGCC | No |
| GGCAGAGCUCAACACAGCGUGGCAAAGUGGCUGUGGCUAAACUGGC | Yes |
| GGCAGAGCUCAACACAGCGUGGCAAAGUGAUUGUGGCUAGACUGCC | Yes |
| AGCAGAGCUCAACACAGCGUGGCAAAGUGGCUGUGGCUAGACUACC | Yes |
| GGCAGAGCUCCACACAGCGUGGAAAAGUGGCUGUGGCUAGACUGCC | No |

Does `GGCAGAGAUCAACACAGCGUGGCAAAGUGGCUGUGGCUAUACUGCC` have a reported self-cleavage of at least 0.1?
Yes

Is reported self-cleavage greater than or equal to 0.1 here: `GGCGGAGCUCAGCACAGCGUGGCAAAGUGGCUGUGGCUAGACUGCC`
No

Quick check: does `GGCAGAGCUCAACACAGCGUGGCAAAGUGGCUGUGCCUAGACUGCA` have self-cleavage greater than or equal to 0.1?
Yes

Reported self-cleavage at or above 0.1? `GGCAGAGCUCAACACAGCGUGGCAAAGUGGCUGUGGCCAGAGUGCC`
Yes

In plain terms: is recorded self-cleavage at least 0.1 for `GGCAAAGCUCAACACAGCGUGGCAAAGUGGUUGUGGCUAGACUGCC` ?
No

Check if self-cleavage >= 0.1 (inclusive). Item: `GGCAGUGCUCAACACAGCGUGGCAAAGUGGCUGUGGCUAGAGUGCC`
No

Does the reported self-cleavage for `GGCAGAGCUCAACACAGCGGGGCAAAGUGGCUGUGGCCAGACUGCC` fall at or above the 0.1 mark?
Yes

hey, is self-cleavage for this one >= 0.1? `GGCAGAGCUCAACACAGCGUGGCAACGUGGCUGUGGCUAAACUGCC`
Yes

Check this variant for self-cleavage at or above 0.1: `GGCAGAGCUCAACACAGCGUGGCAAAGUGGCUGUGGGUACACUGCC`
No

Is self-cleavage for `GGCAGAGCUCAACACAGCGUGGCAAAGUGGCUGUGGCUAGAAUUCC` at or above 0.1?
Yes

Determine whether this variant has self-cleavage no lower than 0.1: `GGCAGAGCUCAACACAGAGUGGAAAAGUGGCUGUGGCUAGACUGCC`
Yes

Does the reported self-cleavage for `GGCAGAGCUCAACACAGCGUGGCAAAGUGGCUGUGGUUAGUCUGCC` fall at or above the 0.1 mark?
No

Tell me whether self-cleavage is at least 0.1 here: `GGCGGAGCUCGACACAGCGUGGCAAAGUGGCUGUGGCUAGACUGCC`
Yes

# check: self-cleavage of `UGCAGAGCUCCACACAGCGUGGCAAAGUGGCUGUGGCUAGACUGCC` is greater than or equal to 0.1
No

# check: self-cleavage of `CGCAGAGCUCAACACAGCGUGGCAAAGUGGCUGGGGCUAGACUGCC` is greater than or equal to 0.1
No

Tell me whether self-cleavage is at least 0.1 here: `UGCAGAGCUCAACACAGCGUGGCACAGUGGCUGUGGCUAGACUGCC`
Yes

Is the recorded value of self-cleavage equal to or greater than 0.1 for this variant? `GGCAGAGCUCAACACAGCGUGGUAAAGUGGCUGUGGCUCGACUGCC`
Yes
